B1: library; numbered along this chain (parent)
chain: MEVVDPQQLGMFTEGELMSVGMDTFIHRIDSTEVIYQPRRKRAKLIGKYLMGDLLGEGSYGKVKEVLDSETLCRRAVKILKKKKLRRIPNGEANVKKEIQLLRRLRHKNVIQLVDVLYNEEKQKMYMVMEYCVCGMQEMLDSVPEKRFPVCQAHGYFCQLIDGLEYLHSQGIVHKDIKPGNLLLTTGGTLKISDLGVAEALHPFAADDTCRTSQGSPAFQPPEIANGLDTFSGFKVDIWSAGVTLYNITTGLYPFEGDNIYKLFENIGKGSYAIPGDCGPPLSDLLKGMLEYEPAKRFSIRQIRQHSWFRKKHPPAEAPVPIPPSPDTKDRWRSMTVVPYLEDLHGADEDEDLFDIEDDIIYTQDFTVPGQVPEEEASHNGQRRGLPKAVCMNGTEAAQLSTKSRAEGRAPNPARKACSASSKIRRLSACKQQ

Variants of: B1
Test: STK11 functional score (HeLa growth suppression), rescaled enrichment; synonymous median = 1, nonsense median = 0 (normalised score)
Details: with HeLa; variant type: missense
readout: STK11 functional score
Answer with the value's number alone.

{"columns": ["mutation.annotation", "readout.value"],
 "data": [
  ["S299R", 1.53],
  ["E120C", 0.373],
  ["Q371M", 1.46],
  ["G370V", 0.706]
]}

stdin: # get_value(readout='STK11 functional score', item= K96H )
stdout: 1.33

Cited source for all entries: the supplement of paper PMC12338614
